The reported numbers originate from paper PMC10042774.

Attribute measured: melting point

melting point lookup needed for COc1ccc(-c2cn(-c3ccccc3)nc2/C=C/C(=O)c2c(-c3ccco3)nn(-c3ccc([N+](=O)[O-])cc3)c2C)cc1 [7f] , thanks. 232 to 234 °C

melting point lookup needed for Cc1c(C(=O)/C=C/c2ccncc2)c(-c2ccco2)nn1-c1ccc([N+](=O)[O-])cc1 [7c] , thanks. 198 to 200 °C

melting point lookup needed for Cc1c(C(=O)/C=C/c2cccs2)c(-c2ccco2)nn1-c1ccc([N+](=O)[O-])cc1 [7b] , thanks. 142 to 144 °C

melting point lookup needed for Cc1c(C(=O)/C=C/c2ccco2)c(-c2ccco2)nn1-c1ccc([N+](=O)[O-])cc1 [7a] , thanks. 138 to 140 °C

melting point lookup needed for Cc1ccc(-c2cn(-c3ccccc3)nc2/C=C/C(=O)c2c(-c3ccco3)nn(-c3ccc([N+](=O)[O-])cc3)c2C)cc1 [7e] , thanks. 248 to 250 °C

melting point lookup needed for Cc1c(C(=O)/C=C/c2nn(-c3ccccc3)cc2-c2ccc(Cl)cc2)c(-c2ccco2)nn1-c1ccc([N+](=O)[O-])cc1 [7g] , thanks. 242 to 244 °C

melting point lookup needed for Cc1c(C(=O)/C=C/c2nn(-c3ccccc3)cc2-c2ccccc2)c(-c2ccco2)nn1-c1ccc([N+](=O)[O-])cc1 [7d] , thanks. 168 to 170 °C

melting point lookup needed for Cc1c(C(=O)/C=C/c2nn(-c3ccccc3)cc2-c2ccc([N+](=O)[O-])cc2)c(-c2ccco2)nn1-c1ccc([N+](=O)[O-])cc1 [7h] , thanks. 242 °C
